biological target: Glucose transporter (Leishmania mexicana); assay: ST_JUDE_LEISH: Cytotoxicity at 2uM final concentration against transgenic Leishmania Mexicana promastigotes LmGT2 that are glucose transport deficient and complemented with the L. Mexicana glucose transporter 2. Activity is measured by DNA content using SYBR green in vitro; format: functional
REPORTED PROPERTY: inhibition (%)

COMPOUND: Cc1cccc2nc(-c3ccc(-c4ccc(CN5CCN(CCC#N)CC5)cc4)cc3)[nH]c12
NUMERIC READOUT: 11.8

COMPOUND: Cc1cc(NC2CCCC2)nc(Nc2ccc(F)cc2)n1
NUMERIC READOUT: 0.46

COMPOUND: N#Cc1ccc2c(c1)CCN(CCC1CCC(NC(=O)c3cc4ccc(Br)cc4[nH]3)CC1)C2 (stereo not drawn)
NUMERIC READOUT: 1.16

COMPOUND: COc1ccc(C(=C(C)CC(C)C(=O)O)c2ccccc2)cc1 (stereo not drawn)
NUMERIC READOUT: 0.28

COMPOUND: C=C[C@]1(C)C[C@@H](OC(=O)NC(=O)CCCS(=O)(=O)c2nnc(C)s2)[C@]2(C)[C@H](C)CC[C@]3(CCC(=O)[C@H]32)[C@@H](C)[C@@H]1O
NUMERIC READOUT: 6.8

COMPOUND: CC(C)(C)c1ccc(OC(=O)c2ccc(NC(=O)N[C@@H](Cc3ccc(O)cc3)C(=O)NC3CCN(Cc4ccc(O)cc4)C3)cc2)cc1 (stereo partly drawn)
NUMERIC READOUT: 9.56

COMPOUND: COc1ccc(/C=C/C(=O)Nc2ccc(-c3ccncc3)cc2)cc1CCCN(C)C
NUMERIC READOUT: 6.94

COMPOUND: CCOc1cc(C(=O)N[C@@H](Cc2ccccc2)[C@H](O)CNCc2cccc(OC)c2)cc(N2CCCCS2(=O)=O)c1
NUMERIC READOUT: 3.08

---

inhibition by entry:
molecular target: Solute carrier family 2, facilitated glucose transporter member 1 (Homo sapiens); assay: ST_JUDE_LEISH: Cytotoxicity at 2uM final concentration against transgenic Leishmania Mexicana promastigotes LmGLUT1 that are glucose transport deficient and complemented with the human glucose transporter GLUT1. Activity is measured by DNA content using SYBR green in vitro; format: functional

COMPOUND: COCCNCc1ccc(-c2ccc(CNC3CCN(Cc4ccccc4)CC3)cc2)cc1
TGT: Solute carrier family 2, facilitated glucose transporter member 1 (Homo sapiens)
inhibition / %: 0.78

COMPOUND: O=C(/C=C/c1ccc(Cl)c(Cl)c1)NCCCCCCN1CCCN(C(=O)Nc2cc(Cl)cc(Cl)c2)CC1
TGT: Solute carrier family 2, facilitated glucose transporter member 1 (Homo sapiens)
inhibition / %: 0.67

COMPOUND: Cc1ccc2[nH]c(C)cc(=NN=Cc3ccc(Cl)cc3)c2c1
TGT: Solute carrier family 2, facilitated glucose transporter member 1 (Homo sapiens)
inhibition / %: -0.11

COMPOUND: CCC1CN(S(=O)(=O)c2ccc3c(c2)NC(=O)CC(=O)N3)c2cc(Cl)ccc2O1 (centres undefined)
TGT: Solute carrier family 2, facilitated glucose transporter member 1 (Homo sapiens)
inhibition / %: 2.65

COMPOUND: Oc1cc(Nc2ccnc3cc(-c4ccc(CN5CCCCC5)o4)ccc23)c(Cl)cc1F
TGT: Solute carrier family 2, facilitated glucose transporter member 1 (Homo sapiens)
inhibition / %: 3.23

COMPOUND: O=C(Nc1ccc(F)cc1F)NC1CCN(CCCCCNC(=O)C2CC2c2ccc(Cl)c(Cl)c2)CC1 (centres undefined)
TGT: Solute carrier family 2, facilitated glucose transporter member 1 (Homo sapiens)
inhibition / %: 0.37

COMPOUND: Cc1cc(C(F)(F)F)n2nc(C(=O)N(Cc3cncn3Cc3cccc(F)c3)CC3CC3)cc2n1
TGT: Solute carrier family 2, facilitated glucose transporter member 1 (Homo sapiens)
inhibition / %: -0.1

COMPOUND: Oc1cccc(-c2nc(-c3cccc(I)c3)c(-c3ccc(-c4nc(-c5cccc(O)c5)[nH]c4-c4cccc(I)c4)cc3)[nH]2)c1
TGT: Solute carrier family 2, facilitated glucose transporter member 1 (Homo sapiens)
inhibition / %: 4.52

COMPOUND: COc1cc(C)nc2ccc(NC(=O)Nc3ccc([N+](=O)[O-])cc3C)cc12
TGT: Solute carrier family 2, facilitated glucose transporter member 1 (Homo sapiens)
inhibition / %: 3.91

---

inhibition by entry:
biological target: Solute carrier family 2, facilitated glucose transporter member 1 (Homo sapiens); test: ST_JUDE_LEISH: Cytotoxicity at 2uM final concentration against transgenic Leishmania Mexicana promastigotes LmGLUT1 that are glucose transport deficient and complemented with the human glucose transporter GLUT1. Activity is measured by DNA content using SYBR green in vitro; assay type: functional

MOLECULE: CCN(CC)/C(=N\CCCCCC/N=C(\NC(=N)c1ccc(Cl)cc1)N(CC)CC)NC(=N)c1ccc(Cl)cc1
UNITS: %
inhibition: 1.79

MOLECULE: Cc1c(O)cccc1Nc1ccnc2ccc(C(F)(F)F)cc12
UNITS: %
inhibition: -0.14

MOLECULE: Cc1nc(C)c(-c2ccc(Oc3cc(Cl)cc(Cl)c3)cc2)c(O)c1Br
UNITS: %
inhibition: 1.01

MOLECULE: Clc1ccccc1CCNCC1CCN(CC2CCCCC2)CC1
UNITS: %
inhibition: 4.24

MOLECULE: CN(C)CC1CCCN1Cc1ccccc1-c1cnn(C)c(=O)c1Oc1ccc(F)cc1 (stereo not given)
UNITS: %
inhibition: 5.23

MOLECULE: CCN1CCC(N(Cc2ccc(-c3ccc(C(F)(F)F)cc3)cc2)C(=O)Cn2c(CCc3cccc(F)c3F)cc(=O)c3c2CCC3)CC1
UNITS: %
inhibition: 1.27

MOLECULE: CC1CN(Cc2ccc(-c3cccc(-c4nc5cc(F)ccc5[nH]4)c3)cc2)CC(C)O1 (stereo not given)
UNITS: %
inhibition: 1.55

MOLECULE: Nc1cccc(-c2ccc3ccnc(N)c3c2)c1
UNITS: %
inhibition: 3.63

MOLECULE: CCN(CC)CCCN(C(=O)Nc1cc(F)cc(F)c1)c1nc(-c2ccc(F)cc2)cs1
UNITS: %
inhibition: 1.8

MOLECULE: NCC(NC(=O)c1ccc(-c2c[nH]c3ncccc23)s1)c1ccccc1 (stereo not given)
UNITS: %
inhibition: 51.9

MOLECULE: O=C(O)CCc1ccc(-c2c[nH]c3ncc(-c4ccc5ncccc5c4)cc23)cc1
UNITS: %
inhibition: 10.2

MOLECULE: NC1CCCN(Cc2ccc(-c3cccc(-c4nc5ccccc5[nH]4)c3)cc2)C1 (stereo not given)
UNITS: %
inhibition: 3.53

MOLECULE: O=S(=O)(c1csc2ccccc12)N(CCC(O)(C(F)(F)F)C(F)(F)F)Cc1cccc(O)c1
UNITS: %
inhibition: -1.82

MOLECULE: CC(=O)Nc1ccc(C#Cc2ccc(-c3c(C)[nH]c(C)c(Cl)c3=O)cc2)cc1
UNITS: %
inhibition: 1.3

MOLECULE: COc1cc2ncnc(Nc3ccc4nc(Cc5ccccc5)[nH]c4c3)c2cc1OC
UNITS: %
inhibition: 1.2

MOLECULE: CCCCSc1nc2c(c(=O)n1Cc1ccco1)C1(CCCCC1)Cc1ccccc1-2
UNITS: %
inhibition: 0.71

MOLECULE: O=C(/C=C/c1ccc(Cl)c(Cl)c1)NCCCCCN1CCN(C(=O)Nc2ccc(Cl)c(C(F)(F)F)c2)CC1
UNITS: %
inhibition: 2.17

MOLECULE: O=C(Nc1ccc(Cl)c(Cl)c1)N(Cc1ccccc1Br)C1CCNCC1
UNITS: %
inhibition: 0.5

MOLECULE: Cc1cccc2nc(-c3cccc(-c4cccc(NC(=O)Cc5c[nH]cn5)c4)c3)[nH]c12
UNITS: %
inhibition: 1.54

MOLECULE: O=C(c1cc(-c2cccs2)n[nH]1)N1CCN(S(=O)(=O)c2ccc(Br)cc2)CC1
UNITS: %
inhibition: 0.07

---

target: Solute carrier family 2, facilitated glucose transporter member 1 (Homo sapiens); experiment: ST_JUDE_LEISH: Cytotoxicity at 2uM final concentration against transgenic Leishmania Mexicana promastigotes LmGLUT1 that are glucose transport deficient and complemented with the human glucose transporter GLUT1. Activity is measured by DNA content using SYBR green in vitro; format: functional
inhibition by entry:

COMPOUND: CCCc1cc(Cc2cnc(N)nc2N)cc(CC)c1O
inhibition (%): 1.7

COMPOUND: COc1ccc2nccc([C@@H](O)CN3CCC(NC(=O)C(c4cc5ccccc5o4)N4CCN(c5ccc(F)cc5)CC4)CC3)c2c1 (stereo not given in full)
inhibition (%): 2.59

COMPOUND: O=C(CN(c1cccc(C(F)(F)F)c1)S(=O)(=O)c1ccc(Cl)cc1)NCCC(c1ccccc1)c1ccccc1
inhibition (%): -0.18

COMPOUND: CN1CCC(Oc2cc(CN3CC[C@H](NC(=O)c4ccc(Cl)c(Cl)c4)C3)ccc2I)C1 (stereo not given in full)
inhibition (%): -0.57

COMPOUND: C#CCOc1ccc2ccccc2c1CNCCCCCCNCc1c(OCC#C)ccc2ccccc12
inhibition (%): 8.53

COMPOUND: CCNc1cc(C)nc(Nc2ccc(F)cc2)n1
inhibition (%): 22.3

COMPOUND: CC1SC(=S)NC1C(=O)O (stereo not given)
inhibition (%): -1.93

COMPOUND: Cc1cccc2nc(-c3ccc(-c4ccc(CN5CC(C)OC(C)C5)cc4)cc3)[nH]c12 (stereo not given)
inhibition (%): 4.48

COMPOUND: CCCC(=O)NC(c1ccc(C)cc1)c1ccc2cccnc2c1O (stereo not given)
inhibition (%): 3.47

COMPOUND: Cc1ccc(-c2cccc3c(NC(=O)Nc4ccc5nccc(N6CCN(C)CC6)c5c4)cccc23)cn1
inhibition (%): 0.51
